This collection of values is drawn from patent US20160145328A1.

Biological target: T1, protein A (UniProt P38507 37-477)
T1 construct: also called Protein A superantigen
Assay: Heat/Cool phage ELISA: phage-displayed VH, 80 C 10 min then 4 C 10 min, captured on coated protein A; signal as % of untreated sample
Param label: returns Y when Retained binding to protein A (%) < 2%, returns N otherwise, including exact equality.

Binder	Label class
DP47 VH Q39D (other, name in Kabat numbering) VH: QVQLLESGGGLVQPGGSLRLSCAASGFTFSSYAMSWVRDAPGKGLEWVSAISGSGGSTYYADSVKGRFTISRDNSKNTLYLQMNSLRAEDTAVYYCAKSYGAFDYWGQGTLVTVSS	N
DP47 VH A40D (other, name in Kabat numbering) VH: QVQLLESGGGLVQPGGSLRLSCAASGFTFSSYAMSWVRQDPGKGLEWVSAISGSGGSTYYADSVKGRFTISRDNSKNTLYLQMNSLRAEDTAVYYCAKSYGAFDYWGQGTLVTVSS	N
DP47 VH Y32E (other, name in Kabat numbering) VH: QVQLLESGGGLVQPGGSLRLSCAASGFTFSSEAMSWVRQAPGKGLEWVSAISGSGGSTYYADSVKGRFTISRDNSKNTLYLQMNSLRAEDTAVYYCAKSYGAFDYWGQGTLVTVSS	N
DP47 VH A33D (other, name in Kabat numbering) VH: QVQLLESGGGLVQPGGSLRLSCAASGFTFSSYDMSWVRQAPGKGLEWVSAISGSGGSTYYADSVKGRFTISRDNSKNTLYLQMNSLRAEDTAVYYCAKSYGAFDYWGQGTLVTVSS	N
DP47 VH S35D (other, name in Kabat numbering) VH: QVQLLESGGGLVQPGGSLRLSCAASGFTFSSYAMDWVRQAPGKGLEWVSAISGSGGSTYYADSVKGRFTISRDNSKNTLYLQMNSLRAEDTAVYYCAKSYGAFDYWGQGTLVTVSS	N
DP47 VH Q39E (other, name in Kabat numbering) VH: QVQLLESGGGLVQPGGSLRLSCAASGFTFSSYAMSWVREAPGKGLEWVSAISGSGGSTYYADSVKGRFTISRDNSKNTLYLQMNSLRAEDTAVYYCAKSYGAFDYWGQGTLVTVSS	N

Threshold test, Retained binding to protein A (%) < 2%: DP47 VH G26E (other, name in Kabat numbering) VH: QVQLLESGGGLVQPGGSLRLSCAASEFTFSSYAMSWVRQAPGKGLEWVSAISGSGGSTYYADSVKGRFTISRDNSKNTLYLQMNSLRAEDTAVYYCAKSYGAFDYWGQGTLVTVSS Y

Threshold test, Retained binding to protein A (%) < 2%: DP47 VH A40E (other, name in Kabat numbering) VH: QVQLLESGGGLVQPGGSLRLSCAASGFTFSSYAMSWVRQEPGKGLEWVSAISGSGGSTYYADSVKGRFTISRDNSKNTLYLQMNSLRAEDTAVYYCAKSYGAFDYWGQGTLVTVSS Y

Threshold test, Retained binding to protein A (%) < 2%: DP47 VH G26D (other, name in Kabat numbering) VH: QVQLLESGGGLVQPGGSLRLSCAASDFTFSSYAMSWVRQAPGKGLEWVSAISGSGGSTYYADSVKGRFTISRDNSKNTLYLQMNSLRAEDTAVYYCAKSYGAFDYWGQGTLVTVSS N
